experiment: folding enthalpy; higher = less favourable; fluorescence melt of hairpins on a sequencing array, two-state fit; settings: sodium 0.088 M
folding enthalpy values by entry
# number only, unit kcal/mol dropped from output

Examples from the recorded data:
# sequence.text, units.label, folding enthalpy
rows = [
    ("GTAGTCTCGAAAGAGTAC (((..(((....))))))", "kcal/mol", -17.3),
    ("GGACTAGAAATAGTCC ((((((....))))))", "kcal/mol", -33),
    ("GCGACGCGAAAGCTTTGC ((.(.((....)).).))", "kcal/mol", -18.6),
    ("GATCGGTAGTCCGATC ((((((....))))))", "kcal/mol", -44.4),
    ("GATCTTTCAGAAGATC ((((((....))))))", "kcal/mol", -34.1),
    ("GTTTCCGAAAGGAGGAAC ((((((....)))..)))", "kcal/mol", -9.8),
    ("GCTTGCGAAAGCATCAGC ((((((....)))..)))", "kcal/mol", -11.8),
    ("GACCCCCGAAAGGGGTC (((.(((....))))))", "kcal/mol", -19.9),
    ("GTTCGTGGAAACATGGAC ((.(.((....)).).))", "kcal/mol", -16.1),
    ("GGATTCGAAAGAACTCC ((((((....))).)))", "kcal/mol", -22),
]

Note to self: folding enthalpy recorded for GATCGATATCTCGATC ((((((....)))))) was -36

Note to self: folding enthalpy recorded for GGCGGTTCGAAAGAAGCC (((..(((....)))))) was -16.6

Note to self: folding enthalpy recorded for GGGACCCGAAAGGGCCC (((.(((....)))))) was -19

Note to self: folding enthalpy recorded for GGGCACTCGAAAGAGCCC (((..(((....)))))) was -31.1

Note to self: folding enthalpy recorded for GCAGTGCGAAAGCAAAGC ((..(((....)))..)) was -13.3

Note to self: folding enthalpy recorded for GAATGACGAAAGTCGTTC (((.(((....))).))) was -34.4

Note to self: folding enthalpy recorded for GGCCGATCGAAAGATGCC (((..(((....)))))) was -25.1

Note to self: folding enthalpy recorded for GACTCCCGAAAGGGGTC (((.(((....)))))) was -24.9

Note to self: folding enthalpy recorded for GTTCTTCGAAAGAATAAC (((.(((....))).))) was -15.6

Note to self: folding enthalpy recorded for GACGTGGGAAACCACGTC (((((((....))))))) was -37.1

The values you see were collected from the array DNA melting data of Ke et al. (doi:10.1101/2024.01.08.574731).
